Task for the reader: assign each of the following compounds its reported CC50 at 72 h.
assay-remarks: Cytotoxicity against human H4 cells after 72 hrs
Assay type: cell-based
Numbers only; they are read as mM.

Task: Consider the compound shown here: CC(=O)O[C@@H]1[C@@H](F)[C@@H](CSC(C)=O)O[C@H]1n1ccc(=O)[nH]c1=O What is its recorded CC50 at 72 h?
Result: 1.44

Task: Consider the compound shown here: O=c1[nH]cc(F)c(=O)[nH]1 [FLUOROURACIL] What is its recorded CC50 at 72 h?
Result: 3.84

Task: Consider the compound shown here: CC(=O)O[C@@H]1[C@@H](F)[C@@H](CSC(C)=O)O[C@H]1n1cc(F)c(=O)[nH]c1=O What is its recorded CC50 at 72 h?
Result: 1.37

Task: Consider the compound shown here: CC(=O)O[C@@H]1[C@@H](F)[C@@H](CSC(C)=O)O[C@H]1n1cc(C)c(=O)[nH]c1=O What is its recorded CC50 at 72 h?
Result: 0.139
